Each recorded value in this set is attributed to PubChem BioAssay (NCI).

# System: HS 578T breast
# measurement.description: NCI tumour cell line growth inhibition, 48 h
This listing pairs compounds with measured GI50.
measured.attribute: GI50

>  <smiles.str>
Oc1ccccc1/C=N/Nc1nc2ccccc2s1

>  <measurement>
8840 nM

$$$$
>  <smiles.str>
COc1ccc(-c2c(-c3cc4c(c(OC)c3OC)OCO4)noc2N)cc1

>  <measurement>
365 nM

$$$$
>  <smiles.str>
O=c1[nH]ccc2nc(N3CCC(O)CC3)nc(Nc3ccc(N4CCOCC4)cc3)c12

>  <measurement>
2010 nM

$$$$

###

# Tested on: A549 NSCLC
# measurement.description: NCI tumour cell line growth inhibition, 48 h

>  <compound>
Clc1cc(Cl)cc(C2SCc3nc4ccccc4n32)c1 (stereo unspecified)

>  <study.system>
A549 NSCLC

>  <TGI>
76.1 µM

$$$$
>  <compound>
Cn1c(=O)c2c(nc(N3CCOCC3)n2CCCNCC(O)c2ccc(O)c(O)c2)n(C)c1=O (stereo unspecified)

>  <study.system>
A549 NSCLC

>  <TGI>
> 100 µM

$$$$
>  <compound>
CN(C)c1ccc(/C=N/NC(=O)CSc2nc3sc4c(c3c(=O)n2-c2ccccc2)CCCCC4)cc1

>  <study.system>
A549 NSCLC

>  <TGI>
> 100 µM

$$$$
>  <compound>
CC1(OCc2ccccc2)C(=O)N2C1N(C(=O)OCc1ccccc1)CC2(C)C (stereo unspecified)

>  <study.system>
A549 NSCLC

>  <TGI>
> 100 µM

$$$$
>  <compound>
N=C(N)c1ccc(CS(=O)(=O)F)cc1

>  <study.system>
A549 NSCLC

>  <TGI>
> 100 µM

$$$$
>  <compound>
C=CCNC(=O)ON1C(=O)CCC1=O

>  <study.system>
A549 NSCLC

>  <TGI>
> 100 µM

$$$$
>  <compound>
C[C@]12CC/C(=N\O)C[C@@H]1CC[C@@H]1[C@@H]2CC[C@]2(C)/C(=N/O)CC[C@@H]12

>  <study.system>
A549 NSCLC

>  <TGI>
> 100 µM

$$$$
>  <compound>
Nc1ccc([As](=O)(O)O)cc1

>  <study.system>
A549 NSCLC

>  <TGI>
> 100 µM

$$$$
>  <compound>
CC(=O)N(CN1C(=O)CCC1C(=O)O)c1ccc(C)cc1 (stereo unspecified)

>  <study.system>
A549 NSCLC

>  <TGI>
> 100 µM

$$$$
>  <compound>
Cc1cc2nn(C3CCCCO3)nc2cc1C (stereo unspecified)

>  <study.system>
A549 NSCLC

>  <TGI>
> 100 µM

$$$$
>  <compound>
O=C1c2cccc3c([N+](=O)[O-])ccc(c23)C(=O)N1CCCCl

>  <study.system>
A549 NSCLC

>  <TGI>
> 10 µM

$$$$
